Assay: in vitro
Conditions: human, hela cells, % viability
Please respond with reported viability at 28.5 h, 10 µM for every item in the list.
One number for each entry, in %.

compound=Oc1ccc(CN2CCN(c3ccc(F)cc3)CC2)c2cccnc12 measured_number=117
compound="CC(=O)C1=C(C)N(CC2CCCO2)C(=O)C1(NC(=O)c1ccc(C(C)(C)C)cc1)C(F)(F)F (stereo not shown)" measured_number=93.2
compound=CCC(=O)Nc1ccc(O)cc1C(=O)O measured_number=92.8
compound=Cc1ccc(S(=O)(=O)CCc2noc(-c3n[nH]c4ccccc34)n2)cc1 measured_number=104
compound=COc1cc(C(=O)N2CCC(n3c(=O)[nH]c4c(C)cccc43)CC2)ccc1C measured_number=94.2

I have 2 compounds here; please give me viability at 28.5 h, 10 µM for each one.
1. Cc1nc(CSc2nc3sc4c(c3c(=O)n2-c2ccccc2)CCCCC4)cs1
2. CS(=O)(=O)c1ccc(-n2ncc(-c3cccc(C(F)(F)F)c3)n2)cc1

Reply:
110
95.6

I have 3 compounds here; please give me viability at 28.5 h, 10 µM for each one.
1. COc1ccc(C2c3cc(OC)c(OC)cc3CC(=O)N2c2cccc(C(=O)O)c2)cc1OC (stereo not shown)
2. CCOC(=O)Cn1[nH]c(CO)c(Cc2c(Cl)cccc2Cl)c1=O
3. O=C(O)CCCn1cc(NC(=O)c2cc(F)c(F)cc2Cl)cn1

Reply:
1: 94.1; 2: 92.2; 3: 87.8

---

Experiment: in vitro
Conditions: human, hela cells, % viability
EXPERIMENTAL_ENDPOINT: viability at 28.5 h, 10 µM (%)
One number for each entry, in %.

molecule="O=C1NCC2(C/C=C/CCOc3ccccc31)CCN(C(=O)Cc1cccc(F)c1)CC2 [CBK292015]" experimental_endpoint="viability at 28.5 h, 10 µM" measured_number=81
molecule="Cc1nn2c(=O)cc(C(=O)O)[nH]c2c1-c1ccccc1 [CBK287129]" experimental_endpoint="viability at 28.5 h, 10 µM" measured_number=88.2
molecule="FC(F)(F)c1ccnc(Sc2cccc(Cl)c2)c1 [CBK115234]" experimental_endpoint="viability at 28.5 h, 10 µM" measured_number=94.8

Now look at this one.
Query: Output viability at 28.5 h, 10 µM of COc1ccc(C(C)C)cc1-c1cncc(NCC(c2cccnc2)N(C)C)n1 (stereo not shown) [CBK037132]
Reply: 110

---

Please respond with reported viability at 28.5 h, 10 µM for every item in the list.
Assay: in vitro
Details: human, hela cells, % viability
One number for each entry, in %.

Study these solved cases before continuing.
molecule="Cc1ccc(CN(CCCn2ccnc2)Cc2cncn2C)s1 [CBK283106]" unit_abbrev=% measured_number=90.2
molecule="COc1ccc(/C=C(\\C)C(=O)Nc2ccc(N3CCNCC3)c3ccccc23)cc1OC [CBK038913T]" unit_abbrev=% measured_number=92.4
molecule="O=C(NC1CCS(=O)(=O)C1)c1cnc2c(Cl)cccc2c1O (stereo not shown) [CBK304644]" unit_abbrev=% measured_number=87.4

Query: Output viability at 28.5 h, 10 µM of CN(C)c1ccc(-c2ncnn2CC(F)(F)F)cn1 [CBK307215]
Reply: 88

---

Please respond with reported viability at 28.5 h, 5 µM for every item in the list.
Assay: in vitro
Parameters: Viability of infected HeLa host cells, resazurin conversion, bulk resorufin fluorescence relative to DMSO
Conditions: human, hela cells; bulk resorufin, mean of 2
Give bare numbers, in %.

Study these solved cases before continuing.
molecule=COc1ccc(C(=O)NNC(=O)/C=C/c2ccc(C(C)C)cc2)cc1 unit_abbrev=% measured_number=95.5
molecule="COc1cc(N)c2ncccc2c1 [CBK011972C]" unit_abbrev=% measured_number=81.1
molecule="COc1cccc(CNC(C(=O)O)c2ccc3c(c2)OCO3)c1 (stereo not drawn) [CBK015420D]" unit_abbrev=% measured_number=92.5
molecule=CCc1nnc(NS(=O)(=O)c2ccc(NC(=S)NC(=O)c3ccco3)cc2)s1 unit_abbrev=% measured_number=94.7
molecule="CC(C)(CN)CN(Cc1c[nH]c(-c2ccccc2)n1)C(=O)Nc1ccc(C(C)(C)C)cc1 [CBK002462C]" unit_abbrev=% measured_number=89.2

I have 3 molecules here; please give me viability at 28.5 h, 5 µM for each one.
1. OCCNc1nc(Nc2ccc(Br)cc2)nc2ccccc12 [CBK266724C]
2. CC(=O)c1cc(-c2cccnc2)cs1
3. CCc1ccc(S(=O)(=O)Nc2cc(SCC(=O)O)c(O)c3ccccc23)cc1

Reply:
116
110
88.8

I have 7 molecules here; please give me viability at 28.5 h, 5 µM for each one.
1. OC(CN1CCOCC1)Cn1c(-c2ccccc2)c(-c2ccccc2)c2ccc3ccccc3c21 (stereo not drawn) [CBK263996G]
2. Cc1ccc(Nc2ncc(C(=O)NCCCN3CCN(c4cccc(Cl)c4)CC3)c3ccccc23)cc1Cl
3. COCC(=O)N[C@H]1C[C@H]2C(=O)Nc3ccc(/C=C/c4ccccc4)cc3C(=O)N2C1
4. CCCCc1ccc(NC(=N)Nc2nc(C)cc(C)n2)cc1
5. Fc1cccc(F)c1OCCOc1nc(N2CCNCC2)ccc1C(F)(F)F [CBK003977A]
6. COc1ccc([C@@H]2CN(C)C[C@H]2NC(=O)Nc2ccc(Cl)c(Cl)c2)cc1OC
7. CC(C(=O)N1CCC2(CC1)NC(=O)c1ccccc1N2)(c1ccccc1)c1ccccc1

Reply:
92.4
113
96.4
95.4
90.5
92.2
93.1

---

Assay: in vitro
Settings: human, hela cells, % viability
Please respond with reported viability at 28.5 h, 10 µM for every item in the list.
Answers are plain numbers, in %.

Study these solved cases before continuing.
molecule="O=C(c1ccco1)N1CCN(c2cncc(-c3ccc4ccccc4c3)n2)CC1 [CBK065184]" unit_abbrev=% measured_number=89
molecule="Cc1nn(CC(=O)N2CCC(C)CC2)c(=O)c2cc3ccsc3n12 [CBK284081]" unit_abbrev=% measured_number=91.3
molecule="CC(=O)N1C[C@H]2CCCN(S(=O)(=O)c3ccc(F)cc3)[C@H]2C1 [CBK285283]" unit_abbrev=% measured_number=88.8
molecule="CC(=O)N1CCN(c2ccccc2NC(=O)Cc2ccccc2C(=O)O)CC1 [CBK286802]" unit_abbrev=% measured_number=87.6

Now look at this one.
Query: Output viability at 28.5 h, 10 µM of O=C(NCCn1nc(-c2cccs2)ccc1=O)C1CCCCC1 [CBK283837]
Reply: 90.7

---

Please respond with reported viability at 28.5 h, 10 µM for every item in the list.
Experiment: in vitro
Conditions: human, hela cells, % viability
Numbers only, in %.

compound="COc1ccc(-n2c(S)nnc2-c2cccs2)cc1 [CBK266832]" measured_number=103
compound="O=C(NCCCN1CCOCC1)c1ccncc1 [CBK264561F]" measured_number=110
compound="CCn1c(C)cc(C(=O)CSc2nnc(N3CCCC3)n2C2CC2)c1C [CBK306035]" measured_number=85.5

I have 6 compounds here; please give me viability at 28.5 h, 10 µM for each one.
1. CC(=O)NC(c1nccs1)C1CCN(C(=O)C2CC2C)CC1 (stereo not shown) [CBK282232]
2. Cc1cc(CSc2cccs2)no1 [CBK002635]
3. Cc1nc2c(OCC(=O)c3ccc(Cl)cc3Cl)cccn2c1N(C)CC1CC1 [CBK147294]
4. O=C(NCc1cccs1)c1ccc(-c2ccc(OC(F)(F)F)cc2)nc1 [CBK156221]
5. O=C(Oc1ccccc1)c1cc(S(=O)(=O)N2CCOCC2)c(Cl)cc1Cl [CBK269656]
6. O=[N+]([O-])c1c(N2CCN(CCO)CC2)ccc2nonc12 [CBK264397]

Reply:
[101, 91.8, 105, 90, 83.5, 96]

Query: Output viability at 28.5 h, 10 µM of O=C(Cn1cnc2ccccc2c1=O)NCCc1ccsc1 [CBK287844]
Reply: 92.6

---

Please respond with reported viability at 28.5 h, 10 µM for every item in the list.
Test: in vitro
Conditions: human, hela cells, % viability

compound="Cc1ccccc1Sc1ncccc1C(F)(F)F [CBK115231]" experimental_endpoint="viability at 28.5 h, 10 µM" result=104%

I have 3 compounds here; please give me viability at 28.5 h, 10 µM for each one.
1. C=CCn1c2ccccc2c2nnc(SCC(=O)N3c4ccccc4Sc4ccccc43)nc21 [CBK263237]
2. OC1CC(c2cc(NCCc3nc4ccccc4o3)ncn2)C1 (centres unmarked) [CBK306573]
3. N#CC(C(=O)CN1CCN(Cc2ccccc2)CC1)c1ccccc1 (centres unmarked) [CBK269386]

Reply:
["106%", "99.9%", "99.6%"]

---

Experiment: in vitro
Details: human, hela cells, % viability
Please respond with reported viability at 28.5 h, 10 µM for every item in the list.
Please answer in the form of a number followed by its unit of measurement.

molecule=COc1ccccc1NC(=O)N1C[C@@H]2C[C@H](C1)c1c(-c3ccccc3F)ccc(=O)n1C2 result=92.7%
molecule=O=C(O)C1CCN(c2ncnc3scc(-c4ccccc4)c23)CC1 result=95.6%
molecule=COCCN1C(=O)/C(=C2/C(=O)N(CC(=O)Nc3ccccc3)c3ccccc32)SC1=S result=91.3%
molecule="CC(C)(O)C#Cc1ccccc1C(=O)NC(Cc1c[nH]c2ccccc12)C(=O)O (centres unmarked)" result=80.4%
molecule=O=C(CCCN1C(=O)c2cccc3cccc(c23)C1=O)NCc1cccnc1 result=73.9%
molecule=CS(=O)(=O)Nc1ccc(C(=O)NCCN2CCOCC2)cc1 result=93.2%

I have 8 molecules here; please give me viability at 28.5 h, 10 µM for each one.
1. O=C(O)CCC(=O)Nc1cccc(C(=O)Nc2ccc(Br)cc2)c1
2. Cc1ccc(CNC(=O)OCCN2CCN(C)CC2)n1C
3. CCCCOc1nccnc1-c1cnn(C)c1
4. Cc1cccc(-c2nc(C3CCCNC3)n3ccccc23)c1 (centres unmarked)
5. CCOC(=O)c1c(NC(=O)CN2CCCCC2)sc2c1CCCC2=O
6. CC(NC(=O)OC(C)(C)C)c1nnc(SCC(=O)N(C)C)o1 (centres unmarked)
7. O=C(CSc1nc2ccccc2s1)c1cccc([N+](=O)[O-])c1
8. O=C(O)CCNC(=O)c1ccc(NS(=O)(=O)c2ccc(C3CCCCC3)cc2)cc1

Reply:
["94.6%", "86.8%", "92.8%", "92.3%", "112%", "88.3%", "88.2%", "96.1%"]

I have 5 molecules here; please give me viability at 28.5 h, 10 µM for each one.
1. Cn1c(=O)c2ncn(CC(=O)Nc3ccc(N4CCN(Cc5ccccc5)CC4)cc3)c2n(C)c1=O
2. Cc1cnc(C(=O)NC2(c3ccc(Cl)cc3)CCC2)cn1
3. CCN(C(=O)c1cc(C)nc2ccccc12)C1CCN(C)CC1
4. O=C(Cc1c[nH]c2ccccc12)N1CCC2(CCCN(C(=O)c3cccc(C(F)(F)F)c3)C2)C1 (centres unmarked)
5. CC1CCCCN1CC(=O)Nc1ccccc1Oc1ccccc1 (centres unmarked) [CBK023182C]

Reply:
1: 99.7%; 2: 95.2%; 3: 106%; 4: 97.2%; 5: 95.1%

I have 3 molecules here; please give me viability at 28.5 h, 10 µM for each one.
1. CC(C)C(=O)N1CC2(CCN(Cc3cccc(C(F)(F)F)c3)CC2)c2ccccc21
2. CC(=O)c1cc(CN2CCCOC(Cn3cccn3)C2)cs1 (centres unmarked)
3. COc1ccc(NC(=O)c2nn(-c3nc4ccccc4o3)c3ccccc23)cc1

Reply:
1. 102%
2. 84.3%
3. 93.8%
